melting point reference

// solved cases for melting point follow
molecule	quantityName	observedResult
CS(=O)(=O)c1ccc(/C(=C\C2CCCC2)C(=O)O)cc1	melting point	200 to 202 °C
O=c1[nH]c2ccc([C@H]3CC[C@H](N(CCCc4ccc(F)cc4)Cc4ccoc4)CC3)cc2o1	melting point	225 to 227 °C
COC(=O)c1ccc2sc(C(=O)OC)c(O)c2c1Cl	melting point	127 to 131 °C
CCN1CC(=O)N(c2ccc(Cl)cc2Cl)C1=S	melting point	144 to 146 °C
CCCCCCCCCCCCCCC(C)C(=O)O (stereo unspecified)	melting point	44 to 46 °C

What measured melting point goes with `CCC(=O)Nc1ccc(Oc2cccc(OC)c2)cc1` ? 79 to 81 °C

====

quantityName: melting point

molecule	observedResult
CC(C)(C)OC(=O)N1CCC(c2nc3cc(-c4ccc(C#N)cc4)ccc3o2)CC1	137 to 141 °C

Return reported melting point; argument: `COC1=NS(=O)(=O)N=C1OC` 200 to 202 °C

Now try CCN1C(=O)C(C(=O)Nc2cccc(C(=O)Nc3ccccc3)c2)c2cc(C(=O)C3CCCC3)ccc21 (stereo not given) . 208 to 213 °C

Next molecule up: `COCOc1cc(F)ccc1-c1cc(-c2cccc(C(=O)OC)c2)c(C#N)c(NC(=O)c2ccco2)n1` 160 to 162 °C

Next entry: `OCc1cn(-c2ccc(SC(F)(F)F)cc2)cn1` 145 to 147 °C

Same read-out for `ClC(=NNc1c(Cl)cc(Cl)cc1Cl)c1ccc(Cl)cc1` ? 123 to 124 °C

And the next one, O=C(c1cccc(C(F)(F)F)c1)N1CCc2cc(S(=O)(=O)N3CC(c4ccccc4)NC3=O)ccc21 (stereo not given) ? 119 °C

Here is the next molecule: `Cc1cc(-n2ccc(OCc3ccccc3)cc2=O)sc1C(=O)NCc1ccccc1` 153 to 154 °C

Similarly, CCCc1c(OCCCCC2CC(=O)c3ccc(OCC(=O)O)c(CCC)c3O2)ccc(C(C)=O)c1O (stereo not given) ? 164 to 167 °C

====

quantityName: melting point

Past entries and their recorded results:
compound	quantityName	observedResult
COc1ccc(-c2cccc(-c3nc(-c4ccc(C(F)(F)F)cc4)oc3C)c2)cc1	melting point	93 to 94 °C
C#CCN1C(=O)C(C)Oc2cc(Cl)c(-c3ccc(C(F)(F)F)n(C)c3=O)cc21 (stereo not given)	melting point	203 to 204 °C
CC(C)OC(=O)NC12CC1CN(Cc1ccccc1)C2 (stereo not given)	melting point	88 °C

Value lookup for melting point; key = C=CCc1c2n(c3ccccc13)C(=O)C(Cc1nc[nH]c1C)CC2 (stereo not given) 215 to 217 °C

Next: `Cc1ccc(C=C2C(=O)N(c3cc(F)ccc3F)C(=O)N2C)cc1` 136 to 140 °C

====

quantityName: melting point

Here is how some compounds turned out for melting point.
compound	observedResult
Nc1cc(S(N)(=O)=O)sc1Cl	138 °C
COc1cc2c(cc1O)CCN(Cc1ccccn1)C2	137 to 138 °C
CN(C)CCC1CCCCN1C(=O)N1c2ccccc2C(=O)Nc2cccnc21 (stereo not given)	188 to 190 °C
CN(O)C(=O)Nc1ccc([N+](=O)[O-])c(C(F)(F)F)c1	129 to 130 °C
COc1cc(COc2nn(Cc3ccccc3)cc2C=O)ccc1OCc1nc(-c2ccccc2)oc1C	151 to 152 °C
NS(=O)(=O)c1ccccc1CSc1ncccn1	128 to 130 °C

What melting point value was documented for this compound, `C=CCCc1ccc(C(=O)O)c(O)n1` ? 151 to 155 °C

Now consider C=CC(=O)NC1=NN(c2c(Cl)cc(Cl)cc2Cl)C(=O)C1c1cc[nH]n1 (stereo not given) and answer again. 151 to 154 °C

Repeat for the following compound: `COc1cc2c(cc1/C=C/CCO)oc1cc(-c3ccccc3Cl)c3c(c12)C(=O)NC3=O` 247 to 250 °C

Also `Cc1ccc2ncc3nc(C(F)(F)F)n(C)c3c2c1` ? 220 to 223 °C
